Listed variants paired with reported aptazyme ON/OFF ratio
B1: Pistol ribozyme (parent)
chain: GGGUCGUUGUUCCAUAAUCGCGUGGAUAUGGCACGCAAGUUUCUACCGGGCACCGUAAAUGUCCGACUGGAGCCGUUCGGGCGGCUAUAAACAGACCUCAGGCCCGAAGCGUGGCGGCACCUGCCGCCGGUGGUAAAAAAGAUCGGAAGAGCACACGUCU

# Variants of: B1
# measurement protocol: aptazyme ON/OFF ratio, guanine; higher = stronger switching; co-transcriptional cleavage with and without guanine
quantity: aptazyme ON/OFF ratio

| mut | value observed |
| --- | --- |
| U7G U8C U11A C12A C13U | 1.25 |
| U7A G9U U10A U11G C12G | 1.18 |
| U7A U8G G9A U10C U11A C12G C13G | 1.13 |
| U7G U8C U11A C12G | 1.12 |
| U7A U8G G9A U10C U11A | 1.68 |
| U7A G9U U11C C13A | 1.15 |
| U7A U8C G9A U10G U11C C12U C13A | 1.16 |
| U7C G9C C12U C13U | 1.02 |
| U7G U8A G9U U11C C13A | 1.1 |
| U8G G9A U10A U11C C12A | 1.2 |
| U7C G9U U10A U11G C13U | 1.21 |
| U7C U8C G9U U10A U11A C13G | 1.14 |
| U7G U8G U10A U11C C12U C13U | 1.5 |
| U7G U8A U10G C12A C13A | 1.58 |
| U7G U8G G9U U11G C12G C13G | 1.14 |
| U8C G9A U11G C12G | 1.3 |
| U7A U8A G9C U11C C13U | 1.07 |
| U8G U10C C12U C13A | 1.05 |
| U7G U10G U11C | 1.07 |
| U7A G9C U10C U11A C12G C13U | 1.25 |
| U7A U8A G9U U11G | 1.36 |
| U7G U8G U10G C12A C13A | 1.51 |
